Reference source for all entries: patent US11965039B2

# subject_of_test: Human C3 (Complement tech cat #A113c) (human, UniProt P01024 23-1663)
# Sequence (P01024 23-1663 limits assumed): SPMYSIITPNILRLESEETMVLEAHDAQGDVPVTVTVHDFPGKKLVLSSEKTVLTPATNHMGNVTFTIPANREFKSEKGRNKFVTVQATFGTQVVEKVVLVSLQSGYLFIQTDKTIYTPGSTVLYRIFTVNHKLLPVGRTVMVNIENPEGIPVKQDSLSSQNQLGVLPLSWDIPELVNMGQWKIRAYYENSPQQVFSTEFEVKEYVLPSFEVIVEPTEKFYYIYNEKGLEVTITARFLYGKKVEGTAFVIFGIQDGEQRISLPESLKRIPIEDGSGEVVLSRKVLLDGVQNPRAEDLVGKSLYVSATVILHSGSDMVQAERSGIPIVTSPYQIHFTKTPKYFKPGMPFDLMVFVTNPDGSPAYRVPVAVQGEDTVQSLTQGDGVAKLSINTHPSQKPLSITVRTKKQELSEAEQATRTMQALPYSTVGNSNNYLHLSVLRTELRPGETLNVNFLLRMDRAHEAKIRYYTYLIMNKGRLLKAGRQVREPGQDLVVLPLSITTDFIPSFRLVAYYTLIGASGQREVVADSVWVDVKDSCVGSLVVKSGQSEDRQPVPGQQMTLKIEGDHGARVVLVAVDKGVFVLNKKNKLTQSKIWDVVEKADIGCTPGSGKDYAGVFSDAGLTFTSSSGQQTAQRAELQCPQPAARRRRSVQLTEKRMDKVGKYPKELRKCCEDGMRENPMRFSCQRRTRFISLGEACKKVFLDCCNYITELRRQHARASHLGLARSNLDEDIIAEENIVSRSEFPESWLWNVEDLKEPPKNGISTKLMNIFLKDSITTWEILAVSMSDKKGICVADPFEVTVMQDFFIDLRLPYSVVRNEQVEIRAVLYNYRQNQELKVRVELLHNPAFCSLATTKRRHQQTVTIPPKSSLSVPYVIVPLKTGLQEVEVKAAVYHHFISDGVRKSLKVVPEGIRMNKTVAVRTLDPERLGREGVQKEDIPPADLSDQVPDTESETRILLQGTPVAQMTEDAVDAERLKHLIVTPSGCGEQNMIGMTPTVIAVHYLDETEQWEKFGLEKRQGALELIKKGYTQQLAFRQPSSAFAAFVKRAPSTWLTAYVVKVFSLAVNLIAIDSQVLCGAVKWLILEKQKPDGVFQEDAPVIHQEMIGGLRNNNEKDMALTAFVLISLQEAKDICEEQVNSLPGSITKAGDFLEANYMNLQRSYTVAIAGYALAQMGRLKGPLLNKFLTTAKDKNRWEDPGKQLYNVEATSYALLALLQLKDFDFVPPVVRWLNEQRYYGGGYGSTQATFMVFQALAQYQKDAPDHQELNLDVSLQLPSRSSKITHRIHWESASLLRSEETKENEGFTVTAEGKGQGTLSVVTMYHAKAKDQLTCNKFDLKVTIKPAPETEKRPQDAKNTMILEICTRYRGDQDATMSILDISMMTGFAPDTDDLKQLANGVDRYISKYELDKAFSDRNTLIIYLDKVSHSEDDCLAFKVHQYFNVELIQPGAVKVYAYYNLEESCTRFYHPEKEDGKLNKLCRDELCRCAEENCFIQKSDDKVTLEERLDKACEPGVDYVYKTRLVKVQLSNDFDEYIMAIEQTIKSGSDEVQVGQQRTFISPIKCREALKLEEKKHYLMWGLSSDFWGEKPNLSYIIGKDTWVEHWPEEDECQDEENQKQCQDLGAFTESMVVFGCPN
# protocol_description: cell-based or functional assay
Positions of bridges follow the written chain, without caps; N, C: chain ends. Non-standard residues stand in square brackets, D forms with d. Trp(1-Me) = Cn1cc(C[C@H](N)C(=O)O)c2ccccc21; Sar = CNCC(=O)O
Examples of binders with documented inhibition of hemolysis IC50 follow.

{"binder": "Ac-ICIWQDWGEHSCT-NH2 (disulfide 2-12; SMILES CC[C@H](C)[C@H](NC(C)=O)C(=O)N[C@H]1CSSC[C@@H](C(=O)N[C@H](C(N)=O)[C@@H](C)O)NC(=O)[C@H](CO)NC(=O)[C@H](Cc2c[nH]cn2)NC(=O)[C@H](CCC(=O)O)NC(=O)CNC(=O)[C@H](Cc2c[nH]c3ccccc23)NC(=O)[C@H](CC(=O)O)NC(=O)[C@H](CCC(N)=O)NC(=O)[C@H](Cc2c[nH]c3ccccc23)NC(=O)[C@H]([C@@H](C)CC)NC1=O) [Compound 20]", "meas_value": "< 100 nM"}

Let's switch to this binder now.
The binder listed as Ac-EFCI[Trp(1-Me)]QDWGEHRC[Sar]EA-NH2 (disulfide 3-13; SMILES CC[C@H](C)[C@@H]1NC(=O)[C@@H](NC(=O)[C@H](Cc2ccccc2)NC(=O)[C@H](CCC(=O)O)NC(C)=O)CSSC[C@@H](C(=O)N(C)CC(=O)N[C@@H](CCC(=O)O)C(=O)N[C@@H](C)C(N)=O)NC(=O)[C@H](CCCNC(=N)N)NC(=O)[C@H](Cc2c[nH]cn2)NC(=O)[C@H](CCC(=O)O)NC(=O)CNC(=O)[C@H](Cc2c[nH]c3ccccc23)NC(=O)[C@H](CC(=O)O)NC(=O)[C@H](CCC(N)=O)NC(=O)[C@H](Cc2cn(C)c3ccccc23)NC1=O) [Compound 80] shows inhibition of hemolysis IC50 equal to < 100 nM
